Reference for the values: patent US10494415B2

biological target: IGF2 (Homo sapiens, UniProt P01344); assay: SPR (Biacore T200) of recombinant IGF2R domain 11 mutants on immobilised biotinylated IGF2; assay type: binding; set-up: purchased GroPep; details: Table 4; MES-EP pH 6.5
Sequence (P01344 25-91): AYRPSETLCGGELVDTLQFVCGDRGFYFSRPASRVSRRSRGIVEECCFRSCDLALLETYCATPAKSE
Documented Kinetics koff across a set of molecules
Please state the figure in s⁻¹; there is no need to write the unit.

{"Molecule": "AB3 Q1569R P1597H S1602H: domain 11 AB3 + Q1569R, P1597H, S1602H (protein) MKSNEHDDCQVTNPSTGHLFDLSSLSGRAGFTAAYSKSGVVYMSICGENENCPPGVGACFGRTRISVGKANKRLRYVDQVLQLVYKDGSHCPSKHGLSYKSVISFVCRPEAGPTNRPMLISLDKQTCTLFFSWHTPLACEQATECSV", "Readout kind": "Kinetics koff", "Recorded number": 0.0064}

Kindly consider the entry below.
get_value(item= AB5 Q1569R P1597H S1602H: domain 11 AB5 + Q1569R, P1597H, S1602H (AB5-RHH) (protein) MKSNEHDDCQVTNPSTGHLFDLSSLSGRAGFTAAYAKGWGVYMSICGENENCPPGVGACFGRTRISVGKANKRLRYVDQVLQLVYKDGSHCPSKHGLSYKSVISFVCRPEAGPTNRPMLISLDKQTCTLFFSWHTPLACEQATECSV , readout=Kinetics koff) returns 0.0030
